FYI, the data here is from PubChem BioAssay AID2685.

- assay-summary: qHTS Assay for Lipid Storage Modulators in Drosophila S3 Cells;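 note: cells counted by Cell Tracker Red CMTPX staining in the red channel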
- condition-notes: BODIPY lipid droplet fluorescence, 18-24 h, cells fed with added oleic acid; measured here: cell count max response
Hit rate of the full screen: of about 320,000 compounds, about 2,100 (0.66%) were called active. Roughly 53% stayed inconclusive and do not appear here. The sample as a whole holds a higher share of actives than the screen did.
quantity-measured: cell number change (%)

molecule: O=C1CC(c2ccccc2)CC(=NCCO)/C1=C(\O)CCCN1C(=O)c2ccccc2C1=O (centres undefined)
quantity-unit: %
val: -9.46

molecule: Cc1cc(C)n2c(SCC(C)C)nnc2n1
quantity-unit: %
val: -0.577

molecule: O=C1/C(=C/c2ccccc2)SC(=S)N1C1CCS(=O)(=O)C1 (centres undefined)
quantity-unit: %
val: 7.35

molecule: COc1cccc(/C=C2\SC(=O)N(CC(=O)NC3CCS(=O)(=O)C3)C2=O)c1 (centres undefined)
quantity-unit: %
val: 0.472

molecule: O=C(O)CSc1nnc(-c2ccc(Cl)cc2Cl)n1-c1ccccc1
quantity-unit: %
val: 9.07

molecule: COc1ccc(-c2nnc(SCC(=O)O)n2Cc2ccccc2)cc1
quantity-unit: %
val: 16.6

molecule: O=C(c1ccncc1)N1CCN(C2CCCCC2)CC1
quantity-unit: %
val: 9.31

molecule: Cc1cccc(N2CCN(C(=O)c3ccc(CNc4c(N5CCC(C)CC5)c(=O)c4=O)cc3)CC2)c1C
quantity-unit: %
val: 1.91

molecule: Nc1nc2ccc(C(=O)Nc3ccccc3)cc2s1
quantity-unit: %
val: -10.8

molecule: CC(C(=O)NC1CCS(=O)(=O)C1)N1C(=O)/C(=C/c2ccc(Cl)cc2)SC1=S (centres undefined)
quantity-unit: %
val: -12.5

molecule: CCCN1Cc2cccc(C(=O)NCCCOC(C)C)c2C1=O
quantity-unit: %
val: 2.03

molecule: CC(=O)Nc1cccc(Oc2ncnc3scc(-c4ccccc4)c23)c1
quantity-unit: %
val: 1.71

molecule: O=C(NC12CC3CC(CC(C3)C1)C2)c1cnccn1
quantity-unit: %
val: 3.24

molecule: CCCCn1c(-c2ccc(OC)cc2)nc2c(=O)n(C)c(=O)[nH]c21
quantity-unit: %
val: 12.4

molecule: O=[N+]([O-])c1cccc(/C=N/NS(=O)(=O)c2ccccc2)c1
quantity-unit: %
val: -12.3

molecule: COc1ccc(NS(=O)(=O)c2ccc(N3CC(O)=C(c4ccccc4)C3=N)cc2)cc1
quantity-unit: %
val: 18.3

molecule: COc1ccc(-c2nc(CSCC(=O)N3CCC(C(N)=O)CC3)c(C)o2)cc1OC
quantity-unit: %
val: -1.8

molecule: Cc1cc(Cl)c2oc(C(=O)N3CCN(C4CCS(=O)(=O)C4)CC3)c(C)c2c1 (centres undefined)
quantity-unit: %
val: 16.7

molecule: O=C(CN1CCCCCC1)Nc1ccc([N+](=O)[O-])cc1Cl
quantity-unit: %
val: -17.1

molecule: CCc1ccccc1NC(=O)CN(c1ccc(OC)cc1OC)S(=O)(=O)c1ccccc1
quantity-unit: %
val: -14.4

molecule: C/C(=C/Cc1c(O)cc2oc(C)cc(=O)c2c1O)COC1OC(CO)C(O)C(O)C1O (centres undefined)
quantity-unit: %
val: 6.97

molecule: CCCn1c(-c2ccccc2)nc2c(=O)n(C)c(=O)[nH]c21
quantity-unit: %
val: -15.6

molecule: O=C(c1ccccc1)N1CCCc2ccccc21
quantity-unit: %
val: 0.741

molecule: CN1/C(=C\C(=O)c2cccs2)Sc2ccccc21
quantity-unit: %
val: 18.5

molecule: CCOc1ccc(N(CC(=O)Nc2ccc(C)cc2)S(=O)(=O)c2c(C)[nH]c(=O)[nH]c2=O)cc1
quantity-unit: %
val: -18.6

molecule: C=CCN(C(=O)c1ccccc1)C1CCS(=O)(=O)C1 (centres undefined)
quantity-unit: %
val: 22.7

molecule: O=C(O)CSc1nnc(-c2ccccc2O)n1Cc1ccccc1
quantity-unit: %
val: 0.192

molecule: O=C(c1ccccc1)N1CCN(C2CCCCCC2)CC1
quantity-unit: %
val: -3.45

molecule: CCNC(=S)NNC(=O)c1ccc(=O)n(Cc2ccccc2)c1
quantity-unit: %
val: 8.31

molecule: Cn1cc(Br)c(NS(=O)(=O)c2ccc(Cl)s2)n1
quantity-unit: %
val: 7.84

molecule: O=C(N/N=C/c1nn(-c2ccccc2)cc1-c1ccc(Cl)cc1)c1ccncc1
quantity-unit: %
val: 11.9

molecule: O=C(CN(c1ccc(F)cc1)S(=O)(=O)c1ccccc1)NC1CC2CCC1C2 (centres undefined)
quantity-unit: %
val: 10.7

molecule: CC1(C)CC(NC(=O)c2cc(S(=O)(=O)N3CCOCC3)c(Cl)cc2Cl)CC(C)(C)N1
quantity-unit: %
val: -3.63

molecule: CN(C)S(=O)(=O)c1cccc(-c2nnc(SCC(=O)NCCCCCC(=O)O)n2-c2ccc(F)cc2)c1
quantity-unit: %
val: 5.6

molecule: O=C(c1ccco1)N(Cc1ccc(Cl)cc1)C1CCS(=O)(=O)C1 (centres undefined)
quantity-unit: %
val: 5.9

molecule: O=C(c1ccc(F)c(F)c1)N1CCCc2ccccc21
quantity-unit: %
val: 4.4

molecule: Cc1ccc(C)c(CN2CCC(CNC(=O)Nc3cccc(Cl)c3C)CC2)c1
quantity-unit: %
val: -2.78

molecule: CCOc1ccc(C(=O)Nc2ccccc2-c2ccccc2)cc1Cl
quantity-unit: %
val: -2.51

molecule: COc1cc(OC)cc(C(=O)/C=C2\Sc3ccccc3N2C)c1
quantity-unit: %
val: 2.87

molecule: COc1ccccc1N(CC(=O)Nc1ccc(Cc2ccncc2)cc1)S(=O)(=O)c1ccccc1
quantity-unit: %
val: 27.6

molecule: COc1ccccc1NC(=O)CN1CCOCC1
quantity-unit: %
val: 25.4

molecule: CN1/C(=C\C(=O)c2cccc([N+](=O)[O-])c2)Sc2ccccc21
quantity-unit: %
val: -22.2

molecule: O=C(CCN1C(=O)S/C(=C\c2ccccc2)C1=O)NC1CCS(=O)(=O)C1 (centres undefined)
quantity-unit: %
val: -15.9

molecule: Cc1cccc(-c2nnc(SCC(=O)O)n2Cc2ccccc2)c1
quantity-unit: %
val: -0.739
